Origin of measurements: paper PMC5121590

molecular target: T1, recombinant AdV5 hexon protein (Human adenovirus C serotype 5 (HAdV-5), UniProt P04133); assay: SPR; details: both partners purified
T1 construct: source: bought: AbD Serotech
T1 sequence (P04133 whole entry): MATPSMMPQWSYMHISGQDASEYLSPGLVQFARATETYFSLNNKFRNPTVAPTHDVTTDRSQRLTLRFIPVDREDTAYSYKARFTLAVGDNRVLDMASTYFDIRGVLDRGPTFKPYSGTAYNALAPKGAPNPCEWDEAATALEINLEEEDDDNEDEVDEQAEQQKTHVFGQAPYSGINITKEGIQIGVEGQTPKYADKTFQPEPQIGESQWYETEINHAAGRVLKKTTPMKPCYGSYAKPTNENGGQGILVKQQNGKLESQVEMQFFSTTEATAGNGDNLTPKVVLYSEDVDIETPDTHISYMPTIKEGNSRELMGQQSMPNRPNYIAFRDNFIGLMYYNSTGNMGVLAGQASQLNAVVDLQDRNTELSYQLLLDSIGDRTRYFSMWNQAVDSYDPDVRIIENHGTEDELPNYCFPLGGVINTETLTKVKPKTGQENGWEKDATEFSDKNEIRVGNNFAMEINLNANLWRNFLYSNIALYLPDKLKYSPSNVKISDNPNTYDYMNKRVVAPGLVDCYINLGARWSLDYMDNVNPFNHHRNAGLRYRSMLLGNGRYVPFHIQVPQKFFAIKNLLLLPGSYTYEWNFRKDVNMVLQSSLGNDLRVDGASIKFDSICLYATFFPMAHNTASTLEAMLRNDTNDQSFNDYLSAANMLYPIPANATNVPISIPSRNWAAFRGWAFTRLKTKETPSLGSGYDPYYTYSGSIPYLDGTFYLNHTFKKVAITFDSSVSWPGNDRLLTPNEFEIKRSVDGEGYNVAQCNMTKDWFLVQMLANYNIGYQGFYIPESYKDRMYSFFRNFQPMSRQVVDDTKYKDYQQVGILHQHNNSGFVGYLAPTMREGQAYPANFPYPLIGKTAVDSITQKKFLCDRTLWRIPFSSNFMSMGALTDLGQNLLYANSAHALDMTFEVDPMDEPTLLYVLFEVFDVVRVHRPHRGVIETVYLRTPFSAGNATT
pKd: −log10 of the molar value.
Listed here are binders together with their documented pKd.

Binder	pKd
h9C12 Fab Q97A (Fab, V domains shown, source: HEK293E, transiently co-transfected, purified (CaptureSelect CH1, SEC Superdex 75)) VH: VQLKQSGPGLLQPSQRLSITCTVSGFSLGRYGVHWIRQSPGKGLEWLGVIWRGGTTDYNAVFMSRLSINKDDSKSQVFFTMNSLRPDDTAIYYCARAGSNFPLAYWGQGTLVTVSA VL: NIVMTQTPKFLLVSIGDSITITCKASQSVTNDAAWYQKKPGQSPQLLIYQASTRYTGVPDRFSGSGYGTDFTFTISAVQAEDLAVYFCHQDYSSPLTFGAGTKLELK	6.34
h9C12 Fab (wild type) (Fab, V domains shown, also called WT h9C12; humanized 9C12; source: HEK293E, transiently co-transfected, purified (CaptureSelect CH1, SEC Superdex 75)) VH: VQLKQSGPGLLQPSQRLSITCTVSGFSLGRYGVHWIRQSPGKGLEWLGVIWRGGTTDYNAVFMSRLSINKDDSKSQVFFTMNSLRPDDTAIYYCARQGSNFPLAYWGQGTLVTVSA VL: NIVMTQTPKFLLVSIGDSITITCKASQSVTNDAAWYQKKPGQSPQLLIYQASTRYTGVPDRFSGSGYGTDFTFTISAVQAEDLAVYFCHQDYSSPLTFGAGTKLELK	9.10
h9C12 Fab N100A (Fab, V domains shown, source: HEK293E, transiently co-transfected, purified (CaptureSelect CH1, SEC Superdex 75)) VH: VQLKQSGPGLLQPSQRLSITCTVSGFSLGRYGVHWIRQSPGKGLEWLGVIWRGGTTDYNAVFMSRLSINKDDSKSQVFFTMNSLRPDDTAIYYCARQGSAFPLAYWGQGTLVTVSA VL: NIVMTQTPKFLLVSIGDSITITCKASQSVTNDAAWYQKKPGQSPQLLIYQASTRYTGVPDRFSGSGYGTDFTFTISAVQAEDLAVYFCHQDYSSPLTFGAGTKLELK	9.05
h9C12 Fab G29R/R30S (Fab, V domains shown, source: HEK293E, transiently co-transfected, purified (CaptureSelect CH1, SEC Superdex 75)) VH: VQLKQSGPGLLQPSQRLSITCTVSGFSLRSYGVHWIRQSPGKGLEWLGVIWRGGTTDYNAVFMSRLSINKDDSKSQVFFTMNSLRPDDTAIYYCARQGSNFPLAYWGQGTLVTVSA VL: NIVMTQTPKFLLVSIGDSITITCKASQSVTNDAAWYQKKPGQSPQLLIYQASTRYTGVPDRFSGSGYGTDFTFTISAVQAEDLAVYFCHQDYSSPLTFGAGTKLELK	7.03
